tested on: A431; assay: Dose-dependent change in panel protein levels by western blot; assay type: cell-based, human; details: dose-dependent, 16 h, western blot; further: key: (+) for increase; (−) for decrease; N.C.: (N.C) for no change; (~) for not detected
readout-name: CAD17 protein level change

COc1cccc(-c2cc(=O)c3ccccc3o2)c1N :: +
COc1cc2ncnc(Nc3ccc(F)c(Cl)c3)c2cc1OCCCN1CCOCC1 :: +
O=c1[nH]c2ccccc2n1C1CCN(Cc2ccc(-c3nc4cc5[nH]cnc5cc4nc3-c3ccccc3)cc2)CC1 :: N.C.
C#Cc1cccc(Nc2ncnc3cc(OCCOC)c(OCCOC)cc23)c1 :: +
CC(=O)O[C@H]1C(=O)[C@@]2(C)[C@H]([C@H](OC(=O)c3ccccc3)[C@]3(O)C[C@H](OC(=O)[C@H](O)[C@@H](NC(=O)c4ccccc4)c4ccccc4)C(C)=C1C3(C)C)[C@]1(OC(C)=O)CO[C@@H]1C[C@@H]2O :: N.C.

Numbers sourced from patent US9588122B2.
